Record form. Attribute: pIC50. Fill in for each entry.
Molecular target: NS5B from the BK strain (genotype 1b) (Hepatitis C virus genotype 1b, UniProt P26663)
Construct: NS5B from the BK strain (genotype 1b) is expressed in E. coli as a protein in which the 21 C-terminal amino acids are replaced; made in house; host or cells: E. coli
Sequence (P26663 2420-2989): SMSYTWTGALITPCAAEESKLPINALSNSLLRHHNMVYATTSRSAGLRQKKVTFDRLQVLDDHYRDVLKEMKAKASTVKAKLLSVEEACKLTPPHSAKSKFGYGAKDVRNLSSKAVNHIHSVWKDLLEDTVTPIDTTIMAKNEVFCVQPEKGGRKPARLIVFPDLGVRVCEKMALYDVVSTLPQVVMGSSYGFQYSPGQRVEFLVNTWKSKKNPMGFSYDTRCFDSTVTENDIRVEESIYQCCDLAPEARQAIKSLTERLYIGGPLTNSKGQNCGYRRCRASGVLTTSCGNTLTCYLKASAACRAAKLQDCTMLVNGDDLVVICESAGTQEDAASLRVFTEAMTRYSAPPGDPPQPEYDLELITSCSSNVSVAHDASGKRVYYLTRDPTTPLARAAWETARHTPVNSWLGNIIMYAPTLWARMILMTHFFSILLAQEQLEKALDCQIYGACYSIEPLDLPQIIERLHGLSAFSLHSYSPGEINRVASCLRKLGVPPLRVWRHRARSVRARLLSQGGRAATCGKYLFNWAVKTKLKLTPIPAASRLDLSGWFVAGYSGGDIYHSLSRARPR
Experiment: Hepatitis C polymerase inhibition, NS5B BK strain, 33P-GTP filter assay
Format: biochemical
Conditions: Table 1A; NS5B BK strain; read-out: HCV pol BK IC50
pIC50 is defined as minus the log10 of a concentration measured in mol/L.

# input compound: O=C(O)CC1(c2ccc(C(=O)O)cc2)OCCc2c1[nH]c1c(Cl)cc(Cl)cc21 (centres unmarked) [Example 106] ; wanted: its pIC50
5.64

Fill blank: measured pIC50 of the compound CCCCC1(CC(=O)O)OCCc2c1[nH]c1c(Cl)ccc(C(F)(F)F)c21 (centres unmarked) [Example 133] is ____.
6.15

For Cc1cc(Cl)c2[nH]c3c(c2c1Br)CCOC3(CC(=O)O)c1ccc(C(=O)O)cc1 (centres unmarked) [Example 180] , what is its reported pIC50?
6.09

Given CCC[C@@]1(CC(=O)O)OCCc2c1[nH]c1c(C)cc(F)c(C#N)c21 [Example 12] , state its recorded pIC50.
6.22
